Some binders, each annotated with its measured Kd.
Target: T1, human mature dimer BMP9 recombinant protein (manufactured by R&D systems, Cat#3209-BP) (human, UniProt Q9UK05 320-429)
T1 construct: Bought protein; also called human BMP9; human BMP9 recombinant protein (manufactured by R&D systems)
T1 sequence: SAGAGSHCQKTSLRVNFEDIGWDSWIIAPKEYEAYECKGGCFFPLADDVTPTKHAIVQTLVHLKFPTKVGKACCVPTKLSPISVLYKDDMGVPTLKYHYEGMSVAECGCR
Assay: SPR (Biacore T100), antibody captured on anti-human IgG, human BMP9 (R&D 3209-BP) as analyte, 5 concentrations from 1 nM
Reply numerically in pM, unit not repeated.

BINDER	ENDPOINT_UNIT	REPORTED
10D5-2-3 antibody-humanized antibody HV7aLV2 (antibody, V domains shown, Expressed from pKANTEX93) VH: EVQLVESRGGLVQPGGSMRLSCAASGFTFSNYWMNWVRQAPGKGLEWVAHIRLKSDNYATHYAESVRGRFTISRDDSKSSLYLQMNSLKTEDTGVYYCTGGSNYVFAFWGQGTLVTVSS VL: DIVMTQSPDSLAVSLGERATINCRASESVDNYGISFMNWFQQKPGQPPKLLIYAASNQGSGVPDRFSGSGSGTDFTLTISSLQAEDVAVYFCQQSKEVPWTFGQGTKLEIK	pM	9.57
10D5-2-3 antibody-humanized antibody HV3LV3 (antibody, V domains shown, Expressed from pKANTEX93) VH: EVQLVESGGGLVQPGGSLRLSCAASGFTFSNYWMNWVRQAPGKGLEWVAHIRLKSDNYATHYAESVRGRFTISRDDSKNSLYLQMNSLKTEDTAVYYCTGGSNYVFAFWGQGTLVTVSS VL: DIVMTQSPDSLAVSLGERATINCRASESVDNYGISFMNWFQQKPGQPPKLLIYAASNQGSGVPDRFSGSGSGTDFTLTISPLQAEDVAVYFCQQSKEVPWTFGQGTKLEIK	pM	9.49
10D5-2-3 antibody-humanized antibody HV4bLV0 (antibody, V domains shown, Expressed from pKANTEX93) VH: EVQLVESGGGLVQPGGSLRLSCAASGFTFSNYWMNWVRQAPGKGLEWVAHIRLKSDNYATHYAESVRGRFTISRDDSKNSLYLQMNSLKTEDTAIYYCTGGSNYVFAFWGQGTLVTVSS VL: DIVMTQSPDSLAVSLGERATINCRASESVDNYGISFMNWYQQKPGQPPKLLIYAASNQGSGVPDRFSGSGSGTDFTLTISSLQAEDVAVYYCQQSKEVPWTFGQGTKLEIK	pM	11.4
10D5-2-3 antibody-humanized antibody HV9LV4 (antibody, V domains shown, Expressed from pKANTEX93) VH: EVQLVESRGGLVQPGGSMRLSCAASGFTFSNYWMNWVRQAPGKGLEWVAHIRLKSDNYATHYAESVRGRFTISRDDSKSSVYLQMNSLKTEDTGIYYCTGGSNYVFAFWGQGTLVTVSS VL: DIVLTQSPDSLAVSLGERATINCRASESVDNYGISFMNWYQQKPGQPPKLLIYAASNQGSGVPDRFSGSGSGTDFTLTISPMQAEDVAMYYCQQSKEVPWTFGQGTKLEIK	pM	6.38
10D5-2-3 antibody-humanized antibody HV4bLV2 (antibody, V domains shown, Expressed from pKANTEX93) VH: EVQLVESGGGLVQPGGSLRLSCAASGFTFSNYWMNWVRQAPGKGLEWVAHIRLKSDNYATHYAESVRGRFTISRDDSKNSLYLQMNSLKTEDTAIYYCTGGSNYVFAFWGQGTLVTVSS VL: DIVMTQSPDSLAVSLGERATINCRASESVDNYGISFMNWFQQKPGQPPKLLIYAASNQGSGVPDRFSGSGSGTDFTLTISSLQAEDVAVYFCQQSKEVPWTFGQGTKLEIK	pM	10.9

Assign Kd to the following record: 10D5-2-3 antibody-humanized antibody HV9LV3 (antibody, V domains shown, Expressed from pKANTEX93) VH: EVQLVESRGGLVQPGGSMRLSCAASGFTFSNYWMNWVRQAPGKGLEWVAHIRLKSDNYATHYAESVRGRFTISRDDSKSSVYLQMNSLKTEDTGIYYCTGGSNYVFAFWGQGTLVTVSS VL: DIVMTQSPDSLAVSLGERATINCRASESVDNYGISFMNWFQQKPGQPPKLLIYAASNQGSGVPDRFSGSGSGTDFTLTISPLQAEDVAVYFCQQSKEVPWTFGQGTKLEIK
3.52

Assign Kd to the following record: 10D5-2-3 antibody-humanized antibody HV4aLV0 (antibody, V domains shown, Expressed from pKANTEX93) VH: EVQLVESRGGLVQPGGSMRLSCAASGFTFSNYWMNWVRQAPGKGLEWVGHIRLKSDNYATHYAESVRGRFTISRDDSKSSLYLQMNSLKTEDTAVYYCAGGSNYVFAFWGQGTLVTVSS VL: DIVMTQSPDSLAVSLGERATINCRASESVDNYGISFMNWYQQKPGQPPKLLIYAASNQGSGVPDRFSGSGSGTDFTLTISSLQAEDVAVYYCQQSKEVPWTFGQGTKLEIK
9.24

Assign Kd to the following record: 10D5-2-3 antibody-humanized antibody HV9LV0 (antibody, V domains shown, Expressed from pKANTEX93) VH: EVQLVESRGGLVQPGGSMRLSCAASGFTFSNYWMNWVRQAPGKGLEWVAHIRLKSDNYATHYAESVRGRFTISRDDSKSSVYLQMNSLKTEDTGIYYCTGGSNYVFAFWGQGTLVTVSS VL: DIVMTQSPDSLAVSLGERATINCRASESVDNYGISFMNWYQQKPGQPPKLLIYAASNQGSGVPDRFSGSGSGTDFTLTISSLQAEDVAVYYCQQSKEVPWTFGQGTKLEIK
6.45

Assign Kd to the following record: 10D5-2-3 antibody-humanized antibody HV3LV2 (antibody, V domains shown, Expressed from pKANTEX93) VH: EVQLVESGGGLVQPGGSLRLSCAASGFTFSNYWMNWVRQAPGKGLEWVAHIRLKSDNYATHYAESVRGRFTISRDDSKNSLYLQMNSLKTEDTAVYYCTGGSNYVFAFWGQGTLVTVSS VL: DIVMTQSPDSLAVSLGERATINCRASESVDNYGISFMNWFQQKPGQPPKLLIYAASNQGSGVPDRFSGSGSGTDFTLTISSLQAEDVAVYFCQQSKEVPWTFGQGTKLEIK
11.6

Assign Kd to the following record: 10D5-2-3 antibody-humanized antibody HV3LV0 (antibody, V domains shown, Expressed from pKANTEX93) VH: EVQLVESGGGLVQPGGSLRLSCAASGFTFSNYWMNWVRQAPGKGLEWVAHIRLKSDNYATHYAESVRGRFTISRDDSKNSLYLQMNSLKTEDTAVYYCTGGSNYVFAFWGQGTLVTVSS VL: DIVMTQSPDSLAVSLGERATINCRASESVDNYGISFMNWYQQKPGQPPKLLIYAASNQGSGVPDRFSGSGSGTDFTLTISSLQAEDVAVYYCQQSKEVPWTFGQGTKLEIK
11.4
